The reported numbers originate from patent US20130012466A1.

- Tested on: ADR-RES
- Assay: Cytotoxicity assay (cell titer-glo and calcein AM), ADR-RES
- Run conditions: read-out: Cytotoxicity IC50, NCI/ADR RES, calcein; NCI/ADR RES; calcein AM readout; % error in parentheses
# pIC50 per entry
In textbook form, pIC50 equals minus log to base ten of the concentration in mol/L.

Some compounds with recorded pIC50:
1) COc1cc2c(c(OC)c1OC)-c1ccc(OC)c(=O)cc1[C@@H](NC(=O)CN(OC)[C@@H]1O[C@H](CN=[N+]=[N-])[C@H](O)[C@H](O)[C@H]1O)CC2 [Col43, 6-deoxy-6-azido-D-galactoside] | 5.60
2) COc1cc2c(c(OC)c1OC)-c1ccc(OC)c(=O)cc1[C@@H](NC(=O)CN(OC)[C@@H]1OC[C@@H](O)[C@H](O)[C@@H]1O)CC2 [Col1, D-lyxoside] | 5.72

# ---- query compound ----
Q: Specify reported pIC50 for the compound shown: COc1cc2c(c(OC)c1OC)-c1ccc(OC)c(=O)cc1C(NC(=O)CN(OC)C1OC(C)C(O)C(O)C1O)CC2 [Col37, L-rhamnoside]
Result: 5.35
